- Measured On: TbINO1 (Trypanosoma brucei brucei, UniProt Q5QQ46)
- Sequence (Q5QQ46 1-528): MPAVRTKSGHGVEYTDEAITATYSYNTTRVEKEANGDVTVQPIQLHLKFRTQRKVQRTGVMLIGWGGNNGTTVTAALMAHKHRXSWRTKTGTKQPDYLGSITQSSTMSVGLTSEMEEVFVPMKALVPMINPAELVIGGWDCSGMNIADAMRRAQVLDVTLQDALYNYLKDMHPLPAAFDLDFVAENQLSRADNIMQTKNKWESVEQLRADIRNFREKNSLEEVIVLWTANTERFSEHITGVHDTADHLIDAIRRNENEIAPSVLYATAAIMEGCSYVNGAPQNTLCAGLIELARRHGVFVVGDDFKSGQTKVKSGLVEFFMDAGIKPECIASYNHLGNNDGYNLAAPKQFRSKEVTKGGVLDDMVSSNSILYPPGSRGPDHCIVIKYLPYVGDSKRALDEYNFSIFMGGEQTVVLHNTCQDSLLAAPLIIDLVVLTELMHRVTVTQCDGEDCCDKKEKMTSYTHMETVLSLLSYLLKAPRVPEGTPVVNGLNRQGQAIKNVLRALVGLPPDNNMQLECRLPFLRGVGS
- Test Protocol: biochemical
- Type: binding
- Particulars: Supplementary Table 1; compound 1mM; mean ± SD from Boltzman curve fitting
The reader will find reported Tb Ino1 Tm Shift [˚C] values listed item by item below.
Assay Endpoint: Tb Ino1 Tm Shift [˚C] (°C)

Chem Smiles: NCc1csc(-c2cccs2)n1
Measured On: TbINO1 (Trypanosoma brucei brucei, UniProt Q5QQ46)
Assay Endpoint: Tb Ino1 Tm Shift [˚C]
Readout Number: 0.41
--
Chem Smiles: CN(N)c1cc(C(F)(F)F)ccn1
Measured On: TbINO1 (Trypanosoma brucei brucei, UniProt Q5QQ46)
Assay Endpoint: Tb Ino1 Tm Shift [˚C]
Readout Number: 0.15
--
Chem Smiles: CC1CCN(CC(C)(C)N)CC1
Measured On: TbINO1 (Trypanosoma brucei brucei, UniProt Q5QQ46)
Assay Endpoint: Tb Ino1 Tm Shift [˚C]
Readout Number: 0.53
--
Chem Smiles: CCOC(=O)c1[nH]c(C)c(CC)c1C
Measured On: TbINO1 (Trypanosoma brucei brucei, UniProt Q5QQ46)
Assay Endpoint: Tb Ino1 Tm Shift [˚C]
Readout Number: 0.17
--
Chem Smiles: CNCc1c(-c2ccccc2)noc1C
Measured On: TbINO1 (Trypanosoma brucei brucei, UniProt Q5QQ46)
Assay Endpoint: Tb Ino1 Tm Shift [˚C]
Readout Number: 0.02
--
Chem Smiles: Cc1nc(-c2ccccc2)c(CO)s1
Measured On: TbINO1 (Trypanosoma brucei brucei, UniProt Q5QQ46)
Assay Endpoint: Tb Ino1 Tm Shift [˚C]
Readout Number: 0.08
--
Chem Smiles: COC(=O)c1cc(C)[nH]c1C
Measured On: TbINO1 (Trypanosoma brucei brucei, UniProt Q5QQ46)
Assay Endpoint: Tb Ino1 Tm Shift [˚C]
Readout Number: 0.78
--
Chem Smiles: CSc1ccc(C(=O)O)s1
Measured On: TbINO1 (Trypanosoma brucei brucei, UniProt Q5QQ46)
Assay Endpoint: Tb Ino1 Tm Shift [˚C]
Readout Number: 0.43

----------
The reader will find reported ΔTm at 1000 µM values listed item by item below.
- Measured On: TbINO1 (Trypanosoma brucei brucei, UniProt Q5QQ46)
- Test Protocol: biochemical
- Assay type: binding
- Particulars: read-out: TbIno1 Tm shift [°C]
Assay Endpoint: ΔTm at 1000 µM (°C)

Molecule: O=C(O)c1ccoc1
Assay Endpoint: ΔTm at 1000 µM
Value Unit: °C
Readout Number: 3.72
//
Molecule: CC(=O)c1cc[nH]c1
Assay Endpoint: ΔTm at 1000 µM
Value Unit: °C
Readout Number: 1.88
//
Molecule: NCc1nc2ccccc2s1
Assay Endpoint: ΔTm at 1000 µM
Value Unit: °C
Readout Number: 2.03
//
Molecule: Cc1cc(CO)c(-c2ccccc2)o1
Assay Endpoint: ΔTm at 1000 µM
Value Unit: °C
Readout Number: 1.61
//
Molecule: O=C(O)c1ccccc1-c1ccco1
Assay Endpoint: ΔTm at 1000 µM
Value Unit: °C
Readout Number: 4.29
//
Molecule: Cc1csc(N)c1C(N)=O [compound 239, 2-amino-4-methylthiophene-3-carboxamide]
Assay Endpoint: ΔTm at 1000 µM
Value Unit: °C
Readout Number: 2.05
//
Molecule: CC(=O)c1c(O)cccc1O [compound 204, 1-(2,6-dihydroxyphenyl)ethan-1-one]
Assay Endpoint: ΔTm at 1000 µM
Value Unit: °C
Readout Number: 2.35
//
Molecule: Cc1ccc(C#N)c(N)c1
Assay Endpoint: ΔTm at 1000 µM
Value Unit: °C
Readout Number: 1.58
//
Molecule: Cc1cc2c(N)cccc2nn1
Assay Endpoint: ΔTm at 1000 µM
Value Unit: °C
Readout Number: 1.83

----------
- Tested on: A549 cells
- Test Protocol: Cytotoxicity against A549 cells, Alamar Blue
- Type: cell-based
- Particulars: Homo sapiens, A549, 65 h; Supplementary Table 1; compound 0.5 mM; percentage of controls (n=1)
The reader will find reported viability at 500 µM values listed item by item below.

Molecule: O=C(O)c1sccc1Cl
Value Unit: %
viability at 500 µM: 117

Molecule: Cc1cc2c(N)cccc2nn1
Value Unit: %
viability at 500 µM: 74.1

Molecule: OCc1nc2ccccc2s1
Value Unit: %
viability at 500 µM: 64.4

Molecule: N#Cc1c(N)cccc1F
Value Unit: %
viability at 500 µM: 77.4

Molecule: N#Cc1ccccc1-n1cccc1
Value Unit: %
viability at 500 µM: 134

Molecule: Cn1ccc2ccc(C(=O)O)cc21
Value Unit: %
viability at 500 µM: 101

Molecule: Nc1ccc2ncsc2c1
Value Unit: %
viability at 500 µM: 38

Molecule: OCc1ccc2nccn2c1 [compound 171, imidazo[1,2‐a]pyridin‐6‐ylmethanol]
Value Unit: %
viability at 500 µM: 99.4

Molecule: N#Cc1cc(-c2ccccc2)oc1N
Value Unit: %
viability at 500 µM: 97.4

Molecule: N#Cc1ccccc1-n1cccn1
Value Unit: %
viability at 500 µM: 134

Molecule: OCc1cccc(N2CCCC2)c1
Value Unit: %
viability at 500 µM: 81.2

Molecule: NCCc1cccc2c1OCC2 [compound 293, 2,3‐Dihydrobenzo[b]furan‐7‐ethylamine]
Value Unit: %
viability at 500 µM: 19.8

Molecule: O=C(O)CCc1cccs1
Value Unit: %
viability at 500 µM: 70.9

Molecule: Cc1oc(-c2ccccc2)cc1CO
Value Unit: %
viability at 500 µM: 57.1

Molecule: COC(=O)c1ccc(C)c(Cl)c1 [compound 484, methyl 3‐chloro‐4‐methylbenzoate]
Value Unit: %
viability at 500 µM: 120

Molecule: Nc1cccc(Cn2ccnc2)c1
Value Unit: %
viability at 500 µM: 62.4

Molecule: O=C(O)c1cccc(N2CCCCC2)c1
Value Unit: %
viability at 500 µM: 104

Molecule: OCc1cccnc1N1CCCCC1
Value Unit: %
viability at 500 µM: 80.1

Molecule: Cc1csc2ncnc(Cl)c12 [compound 486, 4‐chloro‐5‐methylthieno[2,3‐d]pyrimidine]
Value Unit: %
viability at 500 µM: 111

Molecule: Nc1ccncc1
Value Unit: %
viability at 500 µM: 106

Molecule: N#Cc1ccc(Oc2ccccn2)cc1
Value Unit: %
viability at 500 µM: 72.1

Molecule: OCc1cc2ccccc2s1
Value Unit: %
viability at 500 µM: 71

Molecule: OCc1c[nH]c2ccccc12
Value Unit: %
viability at 500 µM: 41.6

Molecule: COc1cccc(OC)c1SC
Value Unit: %
viability at 500 µM: 103

Molecule: O=C(O)c1cccc(-c2ccccn2)c1
Value Unit: %
viability at 500 µM: 73.9

Molecule: O=C(O)c1ccc(-c2ccccc2)nc1
Value Unit: %
viability at 500 µM: 125

Molecule: CN1CCN(C)C(CO)C1 (stereo not shown)
Value Unit: %
viability at 500 µM: 117

Molecule: OCc1ccc2[nH]cnc2c1
Value Unit: %
viability at 500 µM: 92

Molecule: NCc1ccc(F)cc1
Value Unit: %
viability at 500 µM: 110

Molecule: OCc1ccc(-c2cncnc2)cc1
Value Unit: %
viability at 500 µM: 85.3

Molecule: Nc1cc(-c2cccs2)[nH]n1
Value Unit: %
viability at 500 µM: 81.7

Molecule: OCc1ccc(-c2cccs2)cc1
Value Unit: %
viability at 500 µM: 80

Molecule: CN1CCN(c2ccccc2N)CC1
Value Unit: %
viability at 500 µM: 101

Molecule: OCc1ccc(C(F)(F)F)o1 [compound 314, [5‐(trifluoromethyl)‐2‐furyl]methanol]
Value Unit: %
viability at 500 µM: 76.9

----------
The reader will find reported ΔTm at 1000 µM values listed item by item below.
- Measured On: TbINO1 (Trypanosoma brucei brucei)
- Test Protocol: biochemical
- Type: binding
- Particulars: read-out: TbIno1 Tm shift [°C]

Compound: CC(C)(C)OC(=O)Nc1cccs1 [compound 620, tert-butyl N-(2-thienyl)carbamate]
ΔTm at 1000 µM [°C]: 2.08

Compound: OCc1cccc2c1OCC2 [compound 186, 2,3-Dihydrobenzo[b]furan-7-methanol]
ΔTm at 1000 µM [°C]: 4.09

Compound: Cc1ccc(C(N)=O)c(N)c1 [compound 190, 2-amino-4-methylbenzamide]
ΔTm at 1000 µM [°C]: 1.52

Compound: O=C1Cc2ccccc2N1
ΔTm at 1000 µM [°C]: 2.04

Compound: O=C(O)C1NCCS1 (stereo not shown)
ΔTm at 1000 µM [°C]: 2.63

Compound: OCc1ccc(-n2cccc2)cc1 [compound 372, [4-(1H-pyrrol-1-yl)phenyl]methanol]
ΔTm at 1000 µM [°C]: 3.12

Compound: Cn1c(=O)cc(O)c2ccccc21
ΔTm at 1000 µM [°C]: 1.62

Compound: O=C(O)Cc1c[nH]c2ccccc12
ΔTm at 1000 µM [°C]: 1.67

Compound: O=C(O)C1Cc2ccccc2N1 (stereo not shown)
ΔTm at 1000 µM [°C]: 1.54

Compound: OCc1c[nH]c2ccccc12
ΔTm at 1000 µM [°C]: 2.31

Compound: OCc1cccc2[nH]ccc12
ΔTm at 1000 µM [°C]: 1.9

Compound: Cc1csc(CC#N)n1
ΔTm at 1000 µM [°C]: 2.1

Compound: Cc1occc1C(=O)O
ΔTm at 1000 µM [°C]: 3.89

Compound: O=C1CCSc2ccc(Cl)cc21
ΔTm at 1000 µM [°C]: 2.49

Compound: OCc1ccc(-c2cccs2)s1
ΔTm at 1000 µM [°C]: 1.72

Compound: OCc1ccc2ccccc2n1
ΔTm at 1000 µM [°C]: 2.2
